assay: Human HepG2 cell viability assay in 384 well format; format: toxicity, cell-based; set-up: dose 125 nL, time 70.5 hour; concentration not given beside the values; conditions: HepG2 cells, read-out: Inhibition
Reported values of cytotoxicity at 70.5 h for individual entries
Quantity Kind: cytotoxicity at 70.5 h

1) COc1cccc(COCC(O)CN2CC(n3cccn3)C2)c1 (stereo not drawn)    -6.05%
2) CN(C)c1nc2c(c(=O)[nH]1)CCN(C(=O)c1cccc3nccnc13)C2    2.31%
3) CCOc1cc(C)nc(N2CCN(C(=O)CC)CC2)n1    -8.45%
4) Fc1cccc(N2CCCC3(C2)CN(c2ncccn2)CCO3)c1 (stereo not drawn)    -0.813%
5) Cc1ncsc1CCN(C)C(=O)c1c(O)cccc1O    10.9%
6) CC1(c2ccccc2)CCCN(Cc2nnc(-c3cccnc3)o2)C1 (stereo not drawn)    -3.27%
7) CCC(O)CN1CCN(C(=O)c2cnc3n[nH]c(C)c3c2)CC1 (stereo not drawn)    -7.48%
8) CCSc1ccc(C(=O)N2CCCCC2C(=O)N2CCCC2)cn1 (stereo not drawn)    -0.733%
9) Cc1ccc(F)c(-n2nnc(C(=O)O)c2-c2ccncc2)c1    -5.82%
10) O=C(c1ccc(O)cc1)N1C[C@@H]2CCN(c3cccnc3)C[C@@H]2C1    22.7%
11) Cc1nn(C)c(C)c1CN(C)C(C(=O)O)c1ccc(F)cc1F (stereo not drawn)    -1.85%
12) COCc1nnc(C(=O)N2CC(N3CCCCC3)C2)o1    -9.01%
13) Cc1ccc(-c2nnc(C(C)N3CCc4cncnc4C3)o2)cc1 (stereo not drawn)    1.38%
14) CCCN1CCCN(c2ncccc2C(=O)N2CCCCC2)CC1    -2.98%
15) CC(C)c1noc(OCC(=O)N(C)C(C)C)n1    -12.3%
16) CC1=Nc2c(c(=O)[nH]n2C(C)C)C(c2ccc3c(c2)n(C)c(=O)n3C)S1 (stereo not drawn)    -9%
17) Cc1nc(CN2CCN(C(=O)C(c3ccccc3C)N(C)C)CC2)no1 (stereo not drawn)    -7.12%
18) CN1CCN(Cc2cnn(-c3ccc(F)cc3)c2)[C@H]2CS(=O)(=O)C[C@H]21    -4.08%
19) Cn1c(=O)c2c(c3ccccc31)OC(C)(C)CC2    -9.34%
20) Cc1cccc(CN2CCc3ncnc(Oc4cccnc4)c3CC2)n1    27.9%
21) Cc1cc(CN2CCC(C(=O)O)(n3ccc(-c4ccco4)n3)CC2)on1    -2.92%
22) CCNc1cc2c(nn1)CCN(C(=O)C1COc3ccccc3O1)C2 (stereo not drawn)    -12.7%
23) Fc1ccc2[nH]c3c(c2c1)CCN1C(c2ccccn2)N2CCC31CC2 (stereo not drawn)    19%
